target_entity: human TACE (Homo sapiens (Human), UniProt P78536)
Sequence (P78536 whole entry, looked up, change not shown): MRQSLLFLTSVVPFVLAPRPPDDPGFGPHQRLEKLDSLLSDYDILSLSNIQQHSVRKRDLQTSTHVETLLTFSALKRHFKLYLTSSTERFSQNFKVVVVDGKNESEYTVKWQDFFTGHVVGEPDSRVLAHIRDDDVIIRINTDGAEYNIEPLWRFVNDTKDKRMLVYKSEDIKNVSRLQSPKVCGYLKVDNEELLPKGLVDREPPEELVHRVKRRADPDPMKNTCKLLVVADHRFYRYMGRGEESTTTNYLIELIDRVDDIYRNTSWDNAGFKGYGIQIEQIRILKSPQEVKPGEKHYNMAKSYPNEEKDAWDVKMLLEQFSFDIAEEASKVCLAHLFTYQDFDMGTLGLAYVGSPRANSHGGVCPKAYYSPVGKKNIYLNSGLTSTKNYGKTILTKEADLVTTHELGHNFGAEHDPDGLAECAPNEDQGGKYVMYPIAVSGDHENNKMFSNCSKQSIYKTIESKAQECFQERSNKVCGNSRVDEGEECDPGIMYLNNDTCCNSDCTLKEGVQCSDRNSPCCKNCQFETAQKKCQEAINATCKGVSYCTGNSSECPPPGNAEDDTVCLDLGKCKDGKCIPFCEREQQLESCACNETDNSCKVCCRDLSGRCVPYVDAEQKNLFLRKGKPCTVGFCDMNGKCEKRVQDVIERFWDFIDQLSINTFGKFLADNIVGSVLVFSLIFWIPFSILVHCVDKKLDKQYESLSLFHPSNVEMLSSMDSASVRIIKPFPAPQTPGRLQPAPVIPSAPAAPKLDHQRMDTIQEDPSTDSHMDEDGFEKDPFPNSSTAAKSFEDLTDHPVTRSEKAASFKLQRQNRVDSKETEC
assay_setup: read-out: TACE potency IC50
pIC50: −log10 of the molar value.
measured_metric: pIC50

- Cc1cccc(C2(CCC(=O)N3CCN(c4ccc(Cl)c(F)c4)[C@@H](C)C3)NC(=O)NC2=O)n1 (stereo partly shown): 5.53
- CC(CC1(C2CC2)NC(=O)NC1=O)C(=O)N1CCN(c2cccc(Cl)c2)CC1 (stereo not shown): 5.96
- COCC1(CC(C)C(=O)N2CCN(c3cc(Cl)cc(Cl)c3)CC2)NC(=O)NC1=O (stereo not shown) [compound 222]: 6.47
- CCC(CC1(C)NC(=O)NC1=O)C(=O)N1CCN(c2cc(Cl)cc(Cl)c2)CC1 (stereo not shown) [compound 236]: 6.65
- O=C1NC(=O)C(CCC(=O)N2CCN(c3cc(Cl)cc(Cl)c3)CC2)(c2ccccn2)N1 (stereo not shown): 6.32
- CC(CC1(c2ccccn2)NC(=O)NC1=O)C(=O)N1CCN(c2cccc(Cl)c2)[C@@H](C)C1 (stereo partly shown) [compound 446]: 6.08
- Cc1ccc(C)c(N2CCN(C(=O)CCC3(c4cccnc4)NC(=O)NC3=O)CC2)c1 (stereo not shown): 6.68

---

// values below are pIC50; system is human MMP14 (Homo sapiens (Human))
pIC50: −log10 of the molar value.
measured_metric: pIC50

• COCC1(CC(C)C(=O)N2CCN(c3cc(F)ccc3C)CC2)NC(=O)NC1=O (centres unmarked) = < 4.70
• C[C@H]1CN(C(=O)CCC2(C3CC3)NC(=O)NC2=O)CCN1c1cccnc1 (some centres unmarked) = < 4.70
• COCC1(CC(C)C(=O)N2CCN(c3cccc(Cl)c3C)[C@@H](C)C2)NC(=O)NC1=O (some centres unmarked) = < 4.70
• C[C@H]1CN(C(=O)CC[C@@]2(C3CC3)NC(=O)NC2=O)CCN1c1cc(F)cc(-c2cn[nH]c2)c1 = < 4.70
• CC(CC1(C2CC2)NC(=O)NC1=O)C(=O)N1CCN(c2cncc(Cl)c2)[C@@H](C)C1 (some centres unmarked) = < 4.70
• C[C@H]1CN(C(=O)CCC2(C3CC3)NC(=O)NC2=O)CCN1c1cncc(F)c1 (some centres unmarked) = < 4.70
• CC(=O)N1CC(C2(CC(C)C(=O)N3CCN(c4ccc(F)c(F)c4)[C@@H](C)C3)NC(=O)NC2=O)C1 (some centres unmarked) = 5.91
• CC(CC1(C)NC(=O)NC1=O)C(=O)N1CCN(c2cncc(F)c2)[C@@H](C)C1 (some centres unmarked) = < 4.70
• CCC1(C[C@H](C)C(=O)N2CCN(c3cncc(Cl)c3)[C@@H](C)C2)NC(=O)NC1=O (some centres unmarked) = 6.01
• COCC1(CC(C)C(=O)N2CCN(c3cccc(F)c3)[C@@H](C)C2)NC(=O)NC1=O (some centres unmarked) = 6.17
• CC1(CCC(=O)N2CCN(c3cc(Cl)cc(Cl)c3)CC2)NC(=O)NC1=O (centres unmarked) = < 4.70
• COCC1(CC(C)C(=O)N2CCN(c3cc(Cl)cc(Cl)c3C)[C@@H](C)C2)NC(=O)NC1=O (some centres unmarked) = < 4.70
• O=C1NC(=O)[C@](CCC(=O)N2CCN(c3cc(Cl)cc(Cl)c3)CC2)(C2CC2)N1 = < 4.70
• C[C@H]1CN(C(=O)CCC2(c3cn(C)cn3)NC(=O)NC2=O)CCN1c1cc(F)cc(Cl)c1 (some centres unmarked) = < 4.70

The reported measurements were obtained from patent US9926281B2.
